# targetOrSystem: Programmed cell death protein 1/Programmed cell death 1 ligand 1 (Homo sapiens)
# Sequence (Q15116 whole entry): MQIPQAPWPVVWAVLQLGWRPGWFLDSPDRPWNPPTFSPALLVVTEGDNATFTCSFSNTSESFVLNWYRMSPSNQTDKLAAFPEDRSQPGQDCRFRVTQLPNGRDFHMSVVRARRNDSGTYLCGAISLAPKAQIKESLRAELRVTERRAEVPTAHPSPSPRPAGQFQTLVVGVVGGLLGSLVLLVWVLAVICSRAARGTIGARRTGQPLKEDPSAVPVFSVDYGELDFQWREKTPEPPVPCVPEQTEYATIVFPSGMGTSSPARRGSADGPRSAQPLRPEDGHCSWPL
# Sequence (Q9NZQ7 whole entry): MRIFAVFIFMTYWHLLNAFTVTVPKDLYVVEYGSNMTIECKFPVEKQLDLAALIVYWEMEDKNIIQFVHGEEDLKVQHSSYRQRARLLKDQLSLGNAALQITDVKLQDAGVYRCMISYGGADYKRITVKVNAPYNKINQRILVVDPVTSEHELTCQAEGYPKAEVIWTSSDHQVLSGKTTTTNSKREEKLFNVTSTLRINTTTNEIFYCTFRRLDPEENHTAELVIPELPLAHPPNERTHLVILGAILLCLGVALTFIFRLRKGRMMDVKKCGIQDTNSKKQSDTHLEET
# experimentDescription: Inhibition of PD-1/PD-L1 (unknown origin) interaction pre-incubated for 15 mins and measured after 90 mins by TR-FRET assay
pIC50: −log10 of the molar value.

{"columns": ["compound", "measurementQualifier", "pIC50"],
 "data": [
  ["Cc1c(-c2ccccc2)cccc1-c1nnc(Nc2cccc(CN[C@H](C)CO)c2)o1", "=", 4.15],
  ["Cc1c(-c2ccccc2)cccc1-c1nnc(Nc2ccc(CNCCO)cc2)o1", "=", 3.13],
  ["COc1ccc(Nc2nnc(-c3cccc(-c4ccccc4)c3C)o2)cc1", "=", 5.58],
  ["COc1ccc(Nc2nnc(-c3ccc(-c4ccccc4)c(C)c3)o2)cc1", "<", 4.00],
  ["Cc1c(-c2ccccc2)cccc1-c1nnc(Nc2cccc(CN3CC[C@@H](O)C3)c2)o1", "=", 4.33]
]}

* * *

# targetOrSystem: Programmed cell death 1 ligand 1 (Homo sapiens)
# Sequence (Q9NZQ7 whole entry): as above
# experimentDescription: Binding affinity to human PD-L1 assessed as dissociation constant by micro-scale thermophoresis analysis

{"columns": ["compound", "Kd, nM"],
 "data": [
  ["Cc1c(-c2ccccc2)cccc1-c1nnc(Nc2cccc(CNCCO)c2)o1", 25]
]}
